A collection of compounds and their measured IC50
target: JAK1 (Homo sapiens); construct: purchased Carna Biosciences, Inc; test: JAK tyrosine kinase inhibitory activity in the presence of 1 mM ATP (ELISA), JAK1; format: biochemical
Sequence (P23458 whole entry): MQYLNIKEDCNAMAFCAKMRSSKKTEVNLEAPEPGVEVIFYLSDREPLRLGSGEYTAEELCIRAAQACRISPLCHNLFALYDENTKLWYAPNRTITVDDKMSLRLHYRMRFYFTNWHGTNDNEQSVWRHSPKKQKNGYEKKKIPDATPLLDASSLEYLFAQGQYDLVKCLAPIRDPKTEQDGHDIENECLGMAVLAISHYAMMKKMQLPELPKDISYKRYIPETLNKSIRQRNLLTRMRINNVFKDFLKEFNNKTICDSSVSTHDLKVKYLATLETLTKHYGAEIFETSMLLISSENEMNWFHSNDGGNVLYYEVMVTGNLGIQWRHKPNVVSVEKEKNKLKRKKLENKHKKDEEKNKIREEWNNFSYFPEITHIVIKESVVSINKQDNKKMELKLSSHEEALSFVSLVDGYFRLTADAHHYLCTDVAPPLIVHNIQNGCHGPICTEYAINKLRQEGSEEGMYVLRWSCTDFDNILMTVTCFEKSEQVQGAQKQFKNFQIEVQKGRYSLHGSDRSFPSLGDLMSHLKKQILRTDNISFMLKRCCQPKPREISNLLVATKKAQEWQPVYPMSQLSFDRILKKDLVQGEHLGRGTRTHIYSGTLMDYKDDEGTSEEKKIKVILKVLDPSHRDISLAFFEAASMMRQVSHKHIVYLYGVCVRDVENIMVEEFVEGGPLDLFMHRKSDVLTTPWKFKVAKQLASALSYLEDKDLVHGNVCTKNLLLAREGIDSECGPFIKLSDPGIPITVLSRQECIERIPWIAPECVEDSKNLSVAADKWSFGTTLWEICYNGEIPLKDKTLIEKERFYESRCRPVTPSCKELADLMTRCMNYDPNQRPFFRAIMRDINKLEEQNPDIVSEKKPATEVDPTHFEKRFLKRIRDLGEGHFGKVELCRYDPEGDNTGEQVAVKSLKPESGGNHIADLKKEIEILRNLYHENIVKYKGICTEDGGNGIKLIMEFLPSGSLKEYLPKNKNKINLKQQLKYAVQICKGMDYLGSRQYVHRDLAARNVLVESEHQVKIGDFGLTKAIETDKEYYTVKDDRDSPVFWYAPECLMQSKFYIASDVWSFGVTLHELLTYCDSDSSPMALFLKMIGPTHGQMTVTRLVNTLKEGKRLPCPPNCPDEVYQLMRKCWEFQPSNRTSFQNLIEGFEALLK
Just the number in nM, nothing appended.

Some entries whose results are on file:
Chemical structure: COC(=O)NC1CCN(C(=O)c2cc(N[C@H](C)C(C)(C)C)nc(-c3cnn4ccsc34)n2)CC1
IC50 [nM]: 140

Chemical structure: C[C@H](Nc1cc(C(=O)N2CCC(NC(=O)C3CC3)CC2)nc(-c2cnn3ccsc23)n1)C(C)(C)C
IC50 [nM]: 62

Chemical structure: CCC(CC)Nc1cc(C(=O)N2CCC(NC(=O)COC)CC2)nc(-c2cnn3ccsc23)n1
IC50 [nM]: 600

Chemical structure: CCCCCCC(=O)NC1CCN(C(=O)c2cc(N[C@H](C)C(C)(C)C)nc(-c3cnn4ccsc34)n2)CC1
IC50 [nM]: 310

Chemical structure: C[C@H](Nc1cc(C(=O)N2CCC(NC(=O)C3CCCC3)CC2)nc(-c2cnn3ccsc23)n1)C1CC1
IC50 [nM]: 280

Chemical structure: O=C(NC1CCN(C(=O)c2cc(N[C@H]3CC[C@H](O)CC3)nc(-c3cnn4ccsc34)n2)CC1)C1CC1
IC50 [nM]: 1200

The record that follows has no IC50 shown yet.
**Q:** IC50 lookup needed for COC(=O)NC1CCN(C(=O)c2cc(NC(C)(C)C)nc(-c3cnn4ccsc34)n2)CC1 , thanks.
**A:** 140
